# EXPERIMENTAL DETAILS: self-splicing fitness, log relative to wild type (ln ratio); higher = more splicing; Tetrahymena group I intron in knt gene, E. coli kanamycin selection, DiMSum; sequences stand for … in CUCUCU…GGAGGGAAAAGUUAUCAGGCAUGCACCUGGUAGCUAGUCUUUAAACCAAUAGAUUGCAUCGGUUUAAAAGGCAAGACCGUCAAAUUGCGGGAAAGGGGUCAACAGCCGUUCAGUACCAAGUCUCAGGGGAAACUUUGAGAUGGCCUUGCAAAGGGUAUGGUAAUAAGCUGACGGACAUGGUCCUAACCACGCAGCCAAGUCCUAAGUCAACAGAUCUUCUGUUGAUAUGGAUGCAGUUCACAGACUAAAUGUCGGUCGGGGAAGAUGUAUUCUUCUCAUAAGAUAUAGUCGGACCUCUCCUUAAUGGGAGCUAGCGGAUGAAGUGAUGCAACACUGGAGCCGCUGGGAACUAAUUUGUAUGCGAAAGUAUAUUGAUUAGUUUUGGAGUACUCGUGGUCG;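 note: selection with 25 µg/mL kanamycin versus none on LB agar overnight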
# CONDITION INFO: 30 °C
Classify as follows. Reported self-splicing fitness (ln) greater than or equal to -3: T. Reported self-splicing fitness (ln) below: F.

• GGGCAGCAAUAUUACGAUCU = T
• AAGAAGCAAUAUUACGUCAA = T
• CAUUAGCAAUAUUACGUGAU = F
• CCAAAGCAAUAUUACGCUUA = F
• GGUUAGCAAUAUUACGAAUA = T
• GGUGAGCAAUAUUACGUGAU = T
• GCAAAGCAAUAUUACGAAGA = T
• CCCAAGCAAUAUUACGUGUU = F
• GCGCAGCAAUAUUACGAAAG = T
• AGUGAGCAAUAUUACGUAGA = F
• UACUAGCAAUAUUACGCACC = T
• AUAGAGCAAUAUUACGGUAU = T
• AUGGAGCAAUAUUACGGACA = F
• CAUAAGCAAUAUUACGAUCC = F
• UCCAAGCAAUAUUACGUCGU = T
• AGCUAGCAAUAUUACGCUGU = T
• GGAUAGCAAUAUUACGUGGU = T
• GAUAAGCAAUAUUACGAGCA = T
• GGCCAGCAAUAUUACGUUCU = T
• ACCGAGCAAUAUUACGCAGU = F
• ACCUAGCAAUAUUACGCGGU = F
• AGUUAGCAAUAUUACGCCCU = T
• ACAGAGCAAUAUUACGAGCA = F
• AGUAAGCAAUAUUACGCCUA = T
• AACUAGCAAUAUUACGUGUA = T
• UUAAAGCAAUAUUACGGAAA = T
• GCUGAGCAAUAUUACGCGAU = T
• GCUGAGCAAUAUUACGAACU = T
• ACGAAGCAAUAUUACGCGCA = T
